test: Pharmacokinetic assay in rat in vivo; details: Sprague-Dawley (SD), plasma, male SD rats, IV(2 mg/kg), dosage in Table 3 (Compound 16: 0.45 mg/kg), read-out: T1/2 (half-life) (converted)
outcome-measure: half-life (min)

molecule="CC(=O)Nc1ccc(-c2ccc3ncc4ccc(=O)n(-c5cccc(C(F)(F)F)c5)c4c3n2)cn1 [Compound 15]" number=42.6
molecule="Nc1ncc(-c2ccc3ncc4ccc(=O)n(-c5cccc(C(F)(F)F)c5)c4c3n2)cn1 [Compound 13]" number=37.2
molecule="Nc1ccc(-c2ccc3ncc4ccc(=O)n(-c5cccc(C(F)(F)F)c5)c4c3n2)cn1 [Compound 1]" number=107
